Target: CETP (Homo sapiens, UniProt P11597)
Sequence (P11597 18-493): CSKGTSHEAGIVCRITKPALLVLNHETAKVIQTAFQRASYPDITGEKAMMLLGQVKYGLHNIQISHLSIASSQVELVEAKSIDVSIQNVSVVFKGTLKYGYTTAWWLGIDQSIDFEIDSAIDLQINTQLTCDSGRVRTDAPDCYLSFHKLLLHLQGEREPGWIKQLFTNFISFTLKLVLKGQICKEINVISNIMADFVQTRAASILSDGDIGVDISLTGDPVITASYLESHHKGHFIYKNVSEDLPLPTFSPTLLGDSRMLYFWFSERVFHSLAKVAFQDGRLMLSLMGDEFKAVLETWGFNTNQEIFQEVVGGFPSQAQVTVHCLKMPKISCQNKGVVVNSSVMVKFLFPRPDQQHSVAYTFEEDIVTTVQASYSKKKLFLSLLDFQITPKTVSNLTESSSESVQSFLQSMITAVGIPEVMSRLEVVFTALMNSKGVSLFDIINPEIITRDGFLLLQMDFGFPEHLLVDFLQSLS
Test: Assay of CETP Inhibition using Purified Components (Reconstituted Buffer Assay)
Format: biochemical
Parameters: made in house; host or cells: CHO cells (serum-free conditioned medium)
Conditions: Inhibition of CETP activity in reconstituted buffer assay; transfer of [3H]CE from HDL to LDL; read-out: IC50
Readout: IC50 (µM)

### Prompt Respond only with IC50 recorded for OC(CN(Cc1ccc(OC(F)(F)F)cc1)c1cccc(F)c1F)C(F)(F)F (centres unmarked)
### Response 20

### Prompt Complete the entry with IC50 for OC(CN(Cc1cccc(OC(F)(F)C(F)F)c1)c1cccc(OCc2ccccc2Br)c1)C(F)(F)F (centres unmarked)
### Response 1.5

### Prompt Quick one: give measured IC50 for Cc1cc(C)cc(COc2cccc(N(Cc3cccc(OC(F)(F)C(F)F)c3)CC(O)C(F)(F)F)c2)c1 (centres unmarked)
### Response 0.13

I = O=C(NC1CCCCC1)c1cccc(N(Cc2cccc(OC(F)(F)C(F)F)c2)CC(O)C(F)(F)F)c1 (centres unmarked)
II = OC(CN(Cc1ccccn1)c1cccc(OC(F)(F)F)c1)C(F)(F)F (centres unmarked)
### Prompt Two entries are listed, I and II . Which one carries the higher IC50? Indicate your choice by writing its label.
### Response II
(II: 40 µM, I: 3.3 µM)

1 = OC(CN(Cc1cccc(OC(F)(F)C(F)F)c1)c1cccc(F)c1)C(F)(F)F (centres unmarked)
2 = CCOc1cccc(N(Cc2cccc(OC(F)(F)F)c2)CC(O)C(F)(F)F)c1 (centres unmarked)
### Prompt For the pair 1 and 2 , which member has the lower IC50 number? Refer to your chosen item by its label in the answer.
### Response 2
(2: 2.4 µM, 1: 4 µM)
